meta.source: patent US10941182

Molecular target: T1, human APJ receptor (human, UniProt P35414 1-380)
T1 sequence (looked up): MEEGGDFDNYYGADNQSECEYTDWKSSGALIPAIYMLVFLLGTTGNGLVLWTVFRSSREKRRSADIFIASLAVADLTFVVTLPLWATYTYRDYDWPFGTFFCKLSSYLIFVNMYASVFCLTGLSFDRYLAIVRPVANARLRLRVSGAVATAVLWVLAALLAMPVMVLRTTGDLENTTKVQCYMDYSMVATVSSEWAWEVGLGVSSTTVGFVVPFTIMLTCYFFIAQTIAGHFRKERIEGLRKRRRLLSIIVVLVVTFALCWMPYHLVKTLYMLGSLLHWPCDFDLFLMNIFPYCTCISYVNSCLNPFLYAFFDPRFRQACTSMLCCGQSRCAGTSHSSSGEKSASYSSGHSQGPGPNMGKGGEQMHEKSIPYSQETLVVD
Assay: cell-based or functional assay
Starred links: 1 amine or outer side, 2 acyl side, 3 side chain; linkers in the order of their positions; H or OH if unused. Non-standard residues stand in square brackets, D forms with d. Primed or numbered codes have the meaning given here. *: point of attachment. NPipG = 2-(piperidin-4-ylamino)acetic acid, O=C(CN(C1CCN([*:3])CC1)[*:1])[*:2]; AC4Abu = α-carboxy-4-aminobutyric acid, O=C(C(CCN[*:1])C(=O)[*:3])[*:2]; Oic = O=C(O)[C@@H]1C[C@@H]2CCCC[C@@H]2N1; Phe(4-Cl) = N[C@@H](Cc1ccc(Cl)cc1)C(=O)O; γGlu = O=C(O)[C@H](CCC(=O)[*:2])N[*:1]; NMeR = CN[C@@H](CCCNC(=N)N)C(=O)O; Palmitoyl = CCCCCCCCCCCCCCCC(=O)*; Tridecanoyl = CCCCCCCCCCCCC(=O)*; hArg = N=C(N)NCCCC[C@H](N)C(=O)O; Cha = N[C@@H](CC1CCCCC1)C(=O)O; Aic = NC1(C(=O)O)Cc2ccccc2C1; β3hP = O=C(O)C[C@@H]1CCCN1; Pip = O=C(O)[C@@H]1CCCCN1; Nle = CCCC[C@H](N)C(=O)O; Pip′ = not defined here; AEEA = NCCOCCOCC(=O)O; Aib = CC(C)(N)C(=O)O; BLeu = β-leucine
Response field label takes True when EC50 Human APJ Receptor is strictly below 0.7 nM and False in all other cases.

{"binder": "Palmitoyl-[AC4Abu][AEEA][AEEA][dQ]RP[NMeR][Cha]SHKG[Pip][Nle]P[Aic]-OH (SMILES CCCCCCCCCCCCCCCC(=O)NCCC(C(=O)O)C(=O)NCCOCCOCC(=O)NCCOCCOCC(=O)N[C@H](CCC(N)=O)C(=O)N[C@@H](CCCNC(=N)N)C(=O)N1CCC[C@H]1C(=O)N(C)[C@@H](CCCNC(=N)N)C(=O)N[C@@H](CC1CCCCC1)C(=O)N[C@@H](CO)C(=O)N[C@@H](Cc1c[nH]cn1)C(=O)N[C@@H](CCCCN)C(=O)NCC(=O)N1CCCC[C@H]1C(=O)N[C@@H](CCCC)C(=O)N1CCC[C@H]1C(=O)NC1(C(=O)O)Cc2ccccc2C1) [SEQ ID NO: 590]", "label.class": "False"}
{"binder": "Palmitoyl-[AC4Abu][AEEA][AEEA][dQ][NPipG]P[NMeR][Cha]SHKG[Pip′][Nle][Aib][Phe(4-Cl)]-OH [SEQ ID NO: 646]", "label.class": "True"}
{"binder": "Ac-Q[hArg]P[NMeR][Cha]SHKG[Oic][Nle]P[Phe(4-Cl)]-OH (SMILES CCCC[C@H](NC(=O)[C@@H]1C[C@@H]2CCCC[C@@H]2N1C(=O)CNC(=O)[C@H](CCCCN)NC(=O)[C@H](Cc1c[nH]cn1)NC(=O)[C@H](CO)NC(=O)[C@H](CC1CCCCC1)NC(=O)[C@H](CCCNC(=N)N)N(C)C(=O)[C@@H]1CCCN1C(=O)[C@H](CCCCNC(=N)N)NC(=O)[C@H](CCC(N)=O)NC(C)=O)C(=O)N1CCC[C@H]1C(=O)N[C@@H](Cc1ccc(Cl)cc1)C(=O)O) [SEQ ID NO: 61]", "label.class": "True"}
{"binder": "Tridecanoyl-[γGlu][AEEA][AEEA][BLeu]RP[NMeR][BLeu]SHKG[Oic][Nle]P[Phe(4-Cl)]-OH [SEQ ID NO: 394]", "label.class": "True"}

Attention now turns to another entry.
Is EC50 Human APJ Receptor of Palmitoyl-[γGlu][AEEA][AEEA][dQ]RP[NMeR][Cha]SHKG[Oic][Nle][β3hP][dAMF]-OH [SEQ ID NO: 612] strictly below 0.7 nM?
False
